Test system: MDA-MB-231
Test: Growth inhibition of human MDA-MB-231 cells at 10 uM after 48 hrs by sulforhodamine B assay
Format: functional
Conditions: MDA-MB-231, 48 h, read-out: GI
ASSAY ENDPOINT: inhibition of growth at 10 µM (%)
Answer in %, number only, no unit symbol.

COc1ccc(Cc2nnc(Nc3cccc(OC)c3)c3ccccc23)cc1    37
COc1ccc(Cc2nnc(Nc3ccc(Cl)cc3)c3ccccc23)cc1    36

# input Look up inhibition of growth at 10 µM: COc1ccc(Cc2nnc(Nc3ccc(NC(=O)Nc4ccc(Cl)c(C(F)(F)F)c4)cc3)c3ccccc23)cc1
# output 41

# input I am curious: what inhibition of growth at 10 µM value has been reported for COc1ccc(Cc2nnc(Nc3ccc(NC(=O)Nc4ccc(C#N)cc4)cc3)c3ccccc23)cc1 ?
# output 63

# input Query (molecule): COc1ccc(Cc2nnc(Nc3ccc(NC(=O)Nc4ccc(Cl)cc4)cc3)c3ccccc23)cc1 ; field requested: inhibition of growth at 10 µM
# output 30

# input Given the entry COc1ccc(Cc2nnc(Nc3cccc(C(F)(F)F)c3)c3ccccc23)cc1 , report its measured inhibition of growth at 10 µM.
# output 46

# input Item under review: COc1ccc(Cc2nnc(Nc3ccc(NC(=O)Nc4ccc(OC)cc4)cc3)c3ccccc23)cc1 . Reported inhibition of growth at 10 µM?
# output 46

# input Could you tell me which inhibition of growth at 10 µM is on file for COc1ccc(Cc2nnc(Nc3ccc(Cl)c(C(F)(F)F)c3)c3ccccc23)cc1 ?
# output 40
